# Target system: CaHof1
# Protocol description: SPOT peptide array binding signal intensity (averaged, normalized) (arbitrary units (background-subtracted, floor 0; scale differs between SH3 domains)); higher = stronger binding of the SH3 domain to the peptide
# SPOT peptide array binding signal intensity values compiled below
Please give the numeric answer without any surrounding text.

q: Tell me its SPOT peptide array binding signal intensity given RKRAPTPPAPSRSEK as the entry.
a: 0.25

q: Please look at this binder and report its SPOT peptide array binding signal intensity: YHSRRHPLALGFKYV
a: 4.5

q: Please report SPOT peptide array binding signal intensity for the following binder: AGKRRLPLVRFKASD
a: 0.75

q: Recall and state the measured SPOT peptide array binding signal intensity for QPWTDQFEKLEKEVS .
a: 0.5

q: Give SPOT peptide array binding signal intensity for the following binder: NLKKRPPTAPQRKIS
a: 1

q: Return SPOT peptide array binding signal intensity for the following binder: VATSTSPKLPPRGKQ
a: 0.5

q: Annotate the binder AVPPPPPPPPLPESL with its measured SPOT peptide array binding signal intensity.
a: 0.5

q: Give recorded SPOT peptide array binding signal intensity. SRYRRPLTLLLLKPF
a: 0.5
